measurement protocol: Arterial blood pressure of anesthetized rats, intravenous injection
Assay type: in vivo
details: rat, i.v., pentobarbital anesthesia
Method: Under pentobarbital anesthesia (50 mg/kg s.c.), a catheter was inserted into the carotid artery. The blood pressure was measured via a pressure transducer on a polygraph.
experimental endpoint: duration of blood pressure reducing activity compared with prostaglandin E1

[
  {
    "molecule": "O=C(O)CCCc1cccc2c1OC1CC(O)C(C#CC(O)C3CCCCC3)C21 (stereo not shown)",
    "result": "more prolonged duration"
  },
  {
    "molecule": "CCCCC(C)C[C@H](O)/C=C/[C@@H]1[C@H]2c3cccc(CCCC(=O)O)c3O[C@H]2C[C@H]1O (stereo partly shown)",
    "result": "more prolonged duration"
  },
  {
    "molecule": "O=C(O)/C=C/Cc1cccc2c1O[C@H]1C[C@@H](O)[C@H](/C=C/[C@@H](O)c3ccccc3)[C@@H]21 (relative stereo)",
    "result": "more prolonged duration"
  },
  {
    "molecule": "CCCCCCC(O)C#CC1C(O)CC2Oc3c(CCCC(=O)O)cccc3C21 (stereo not shown)",
    "result": "more prolonged duration"
  },
  {
    "molecule": "CCCC(C)CC(O)C=CC1C(O)CC2Oc3c(CCCC(=O)O)cccc3C21 (stereo not shown)",
    "result": "more prolonged duration"
  },
  {
    "molecule": "CCCC(C)C[C@H](O)/C=C/[C@@H]1[C@H]2c3cccc(CCCC(=O)O)c3O[C@H]2C[C@H]1O (stereo partly shown)",
    "result": "more prolonged duration"
  },
  {
    "molecule": "COC(=O)CCCc1cccc2c1O[C@H]1C[C@@H](O)[C@H](C#CC(O)c3ccccc3)[C@@H]21 (stereo partly shown)",
    "result": "more prolonged duration"
  }
]
